All figures here come from ChEMBL document CHEMBL1123515.

# Tested on: Canis familiaris
# TEST DESCRIPTION: Maximum percent inhibition of acid output in penta gastrin-stimulated Heidenhain pouch dogs at a dose of 5 mg/kg, given intravenously (iv).
# Format: functional
# EXPERIMENTAL CONDITIONS: Canis lupus familiaris
ASSAY READOUT: inhibition in vivo at 5 mg/kg (%)
Kindly provide the numeric value in % only, without the unit symbol.

response.value for `CCNc1cc(-c2c[nH]c(C/N=C(\NC)NC#N)n2)ccn1` (field: inhibition in vivo at 5 mg/kg) = 32

response.value for `CCNc1cc(-c2c[nH]c(C/N=C(/S)NC)n2)ccn1` (field: inhibition in vivo at 5 mg/kg) = 54

response.value for `CCNc1cc(-c2c[nH]c(CC/N=C(\S)NC)n2)ccn1` (field: inhibition in vivo at 5 mg/kg) = 47

response.value for `CCNc1cc(-c2n[nH]c(CCCC/N=C(\S)NC)n2)ccn1` (field: inhibition in vivo at 5 mg/kg) = 27
